B1: CPEB3 Ribozyme (parent)
chain: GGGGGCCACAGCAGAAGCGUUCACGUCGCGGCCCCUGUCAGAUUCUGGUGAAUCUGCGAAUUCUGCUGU

variants of: B1; test: self-cleavage, relative activity (ratio to wild type); higher = more cleavage; co-transcriptional
Reported self-cleavage maps to class as: bottom bin = under 0.2, middle bin = from 0.2 up to 0.8, top bin = 0.8 and over

Mutant label	Assigned label
C6A U38C	middle bin
G5U G28A	bottom bin
G5U G37U	bottom bin
G2A U67G	bottom bin
G1C C33U	middle bin
A23G U53A	top bin
G47C A59C	top bin
G19U C29G	bottom bin
U44A U49G	top bin
A15C G25A	bottom bin
C35A C57U	bottom bin
A23G G65U	middle bin
C22G U38A	bottom bin
G14A G48C	top bin
C35U C45G	top bin
G5U U36G	middle bin
U38A G65C	middle bin
G3U C54U	bottom bin
C18A C27A	bottom bin
G19C A52U	bottom bin
A40G A42U	middle bin
C34U G65A	top bin
C12G A51G	top bin
U21A G30C	middle bin
C18A C57A	bottom bin
U46G G56U	top bin
U43G U44C	top bin
